# Test system: Escherichia coli TOP10;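 note: peptides expressed intracellularly from a pBAD plasmid library in pooled LB shake-flask culture, induced with 0.3% L-arabinose, DNA abundance read by NGS, three biological replicates, DESeq2 with apeglm shrinkage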
# method: shrunken log2 fold change of peptide-encoding DNA abundance (4.5 h post-induction vs induction); higher = less antimicrobial activity (less host growth inhibition)
# study_conditions: time post-induction: 4.5 h; library: site-saturation at positions 5, 18, 19, 20
Outcome label depends on shrunken log2 fold change relative to -0.02: at/above gives True, below gives False.

Hello, I need to know if `RRIRPRPPRLPRPRPRPTPMPRP` has measured shrunken log2 fold change not below -0.02. Thanks! True

Hello, I need to know if `RRIRDRPPRLPRPRPRPQFGPRP` has measured shrunken log2 fold change not below -0.02. Thanks! False

Hello, I need to know if `RRIRARPPRLPRPRPRPHVFPRP` has measured shrunken log2 fold change not below -0.02. Thanks! True

Hello, I need to know if `RRIRSRPPRLPRPRPRPQASPRP` has measured shrunken log2 fold change not below -0.02. Thanks! True

Hello, I need to know if `RRIRLRPPRLPRPRPRPDYSPRP` has measured shrunken log2 fold change not below -0.02. Thanks! True

Hello, I need to know if `RRIRQRPPRLPRPRPRPTDHPRP` has measured shrunken log2 fold change not below -0.02. Thanks! True

Hello, I need to know if `RRIRPRPPRLPRPRPRPIVPPRP` has measured shrunken log2 fold change not below -0.02. Thanks! False

Hello, I need to know if `RRIRCRPPRLPRPRPRPEGSPRP` has measured shrunken log2 fold change not below -0.02. Thanks! False

Hello, I need to know if `RRIRIRPPRLPRPRPRPNNHPRP` has measured shrunken log2 fold change not below -0.02. Thanks! False

Hello, I need to know if `RRIRMRPPRLPRPRPRPYNRPRP` has measured shrunken log2 fold change not below -0.02. Thanks! False

Hello, I need to know if `RRIRERPPRLPRPRPRPDDCPRP` has measured shrunken log2 fold change not below -0.02. Thanks! False

Hello, I need to know if `RRIRERPPRLPRPRPRPCIVPRP` has measured shrunken log2 fold change not below -0.02. Thanks! False

Hello, I need to know if `RRIRSRPPRLPRPRPRPCLEPRP` has measured shrunken log2 fold change not below -0.02. Thanks! True
